# SYSTEM UNDER TEST: human GluN1/GluN2B NMDA receptors (Homo sapiens, UniProt Q05586+Q13224)
# Construct: expressed in transfected cells
# Sequence (Q13224 27-1484, other chains not shown): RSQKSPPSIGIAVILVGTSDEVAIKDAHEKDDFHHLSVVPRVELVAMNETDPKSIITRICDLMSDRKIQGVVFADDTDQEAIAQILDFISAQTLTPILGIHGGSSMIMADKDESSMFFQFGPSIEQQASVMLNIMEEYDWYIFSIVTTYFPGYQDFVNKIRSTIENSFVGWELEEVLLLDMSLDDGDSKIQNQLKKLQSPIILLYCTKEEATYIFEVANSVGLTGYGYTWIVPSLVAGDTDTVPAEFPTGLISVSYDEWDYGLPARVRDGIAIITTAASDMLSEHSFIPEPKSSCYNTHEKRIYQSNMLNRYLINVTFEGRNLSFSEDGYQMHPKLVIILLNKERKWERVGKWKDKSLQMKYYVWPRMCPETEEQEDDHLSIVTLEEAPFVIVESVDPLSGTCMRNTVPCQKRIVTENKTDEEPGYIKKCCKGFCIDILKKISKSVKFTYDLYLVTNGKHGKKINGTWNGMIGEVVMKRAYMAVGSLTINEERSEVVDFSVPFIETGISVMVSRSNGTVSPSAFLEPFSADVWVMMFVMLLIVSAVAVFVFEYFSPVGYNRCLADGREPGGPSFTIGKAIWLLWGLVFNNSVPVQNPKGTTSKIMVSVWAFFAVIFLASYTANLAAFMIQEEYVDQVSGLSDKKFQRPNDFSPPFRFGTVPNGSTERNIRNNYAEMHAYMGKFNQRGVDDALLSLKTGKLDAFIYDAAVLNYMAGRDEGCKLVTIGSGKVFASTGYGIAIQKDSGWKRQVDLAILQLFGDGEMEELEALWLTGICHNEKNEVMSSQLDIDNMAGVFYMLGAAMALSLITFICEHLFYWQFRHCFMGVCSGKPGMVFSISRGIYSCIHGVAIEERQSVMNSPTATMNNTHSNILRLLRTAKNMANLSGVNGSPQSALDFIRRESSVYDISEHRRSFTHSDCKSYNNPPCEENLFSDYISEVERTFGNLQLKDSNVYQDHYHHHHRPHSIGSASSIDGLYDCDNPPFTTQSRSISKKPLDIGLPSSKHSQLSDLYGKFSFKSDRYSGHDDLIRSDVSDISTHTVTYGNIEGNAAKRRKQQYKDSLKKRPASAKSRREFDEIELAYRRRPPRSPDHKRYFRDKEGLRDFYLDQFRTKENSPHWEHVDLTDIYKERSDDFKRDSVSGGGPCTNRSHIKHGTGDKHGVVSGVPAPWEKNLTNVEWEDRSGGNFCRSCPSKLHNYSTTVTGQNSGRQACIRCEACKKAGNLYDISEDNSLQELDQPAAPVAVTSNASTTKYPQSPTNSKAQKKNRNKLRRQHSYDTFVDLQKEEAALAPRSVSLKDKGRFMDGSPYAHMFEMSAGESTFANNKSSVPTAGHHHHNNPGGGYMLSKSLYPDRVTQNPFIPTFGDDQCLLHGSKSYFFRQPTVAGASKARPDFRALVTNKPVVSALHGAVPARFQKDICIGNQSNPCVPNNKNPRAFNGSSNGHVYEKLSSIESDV
# PROCEDURE SUMMARY: Cell-based calcium flux (FLIPR) assay on cloned human NR1/NR2B ion channels expressed in mammalian cells (standard and HTS buffer variants);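 note: stable Tet-On inducible cell line, Ca2+ influx triggered by glutamate at about EC40 plus 10 µM glycine, fluorescent dye read-out over 5 min, normalized to control wells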
# SETUP CONDITIONS: standard assay buffer (0.5 mM MgCl2 dye loading; 137 mM NaCl, 4 mM KCl assay buffer), human GluN1/GluN2B cells, read-out: NR2B IC50 (μM) standard assay
PROPERTY: IC50 (µM)
Return type: number; implicit unit µM.

COMPOUND: [2H]C([2H])([2H])OCc1ccc(-c2cnc3c(c2)n(CC(=O)N(C)C)c(=O)n3C)s1
PROPERTY: IC50
RECORDED RESULT: 2.96

Reported IC50 ( O=c1[nH]c2ncc(-c3cccc(Cl)c3Cl)cc2n1CC1CCN1 (racemic) ) = 0.041

Reported IC50 ( CC(C(=O)N1CCC1)n1c(=O)[nH]c2ncc(-c3cccc(C(F)(F)F)c3)cc21 (racemic) ) = 1.1

Reported IC50 ( O=c1[nH]c2ncc(-c3cccc(C(F)(F)F)c3)cc2n1CC1CNCCO1 (racemic) ) = 6.49
